- TARGET UNDER TEST: Potassium voltage-gated channel subfamily KQT member 2 (Rattus norvegicus)
- ASSAY COMMENT: KCNQ2 channel inhibition, SAR follow-up, selectivity assay for KCNK9 inhibitor project, cell-based, FluxOR thallium flux, concentration-response, set 4 (AID 623913)
- CONDITION CONTEXT: KCNQ2 cells, FluxOR thallium flux fluorescence
ENDPOINT: pIC50
Would you please state pIC50, meaning minus log10 of the concentration in mol/L, as a bare number?

Enquiry: // returns reported pIC50 for input COc1ccc(C(=O)CCSc2nnc(-c3ccco3)n2C(C)C2CC3CCC2C3)cc1OC (stereo unspecified)
Return: 4.96
